Task for the reader: assign each of the following compounds its reported SUP (pKi).
- SYSTEM UNDER TEST: serotonin reuptake
- ASSAY NAME: serotonin (SUP) reuptake blockade
- Type: biochemical
- CONDITION SUMMARY: in vitro
Hey, just send me the number, nothing else.

SUP (pKi) reported for this compound Fc1ccc(C2CN3CCN=C3c3ccccc32)cc1 (single isomer, unassigned; (+)) [Example 7] : 6.25

SUP (pKi) reported for this compound Cc1ccc(C2CN3CCN=C3c3ccccc32)cc1 (racemic) : 6.9

SUP (pKi) reported for this compound Cl.Clc1ccc(C2CN3CCN=C3c3ccccc32)cc1 (racemic) : 7.4

SUP (pKi) reported for this compound Fc1ccc(C2CN3CCN=C3c3ccccc32)cc1 (single isomer, unassigned; (-)) [Example 6] : 7.9

SUP (pKi) reported for this compound Fc1ccc(C2CN3CCN=C3c3ccccc32)cc1 (racemic) [Example 2b] : 7.5

SUP (pKi) reported for this compound Clc1ccc(C2CN3CCN=C3c3ccccc32)cc1 (single isomer, unassigned; (+)) [Example 4] : 7.0

SUP (pKi) reported for this compound Clc1ccc(C2CN3CCN=C3c3ccccc32)cc1 (single isomer, unassigned; (-)) [Example 3] : 7.3

* * *

- SYSTEM UNDER TEST: noradrenaline reuptake
- ASSAY NAME: noradrenaline (NUP) reuptake blockade
- Assay type: biochemical
- CONDITION SUMMARY: in vitro
Task for the reader: assign each of the following molecules its reported NUP (pKi).
Hey, just send me the number, nothing else.

NUP (pKi) reported for this molecule Cc1ccc(C2CN3CCN=C3c3ccccc32)cc1 (racemic) [Example 2c] : 7.75

NUP (pKi) reported for this molecule Clc1ccc(C2CN3CCN=C3c3ccccc32)cc1 (single isomer, unassigned; (+)) [Example 4] : 8.15

NUP (pKi) reported for this molecule Cl.Clc1ccc(C2CN3CCN=C3c3ccccc32)cc1 (racemic) [Example 2a] : 7.9

NUP (pKi) reported for this molecule Fc1ccc(C2CN3CCN=C3c3ccccc32)cc1 (single isomer, unassigned; (+)) [Example 7] : 7.75

NUP (pKi) reported for this molecule Fc1ccc(C2CN3CCN=C3c3ccccc32)cc1 (single isomer, unassigned; (-)) [Example 6] : 7.5

NUP (pKi) reported for this molecule Fc1ccc(C2CN3CCN=C3c3ccccc32)cc1 (racemic) [Example 2b] : 7.65

NUP (pKi) reported for this molecule Clc1ccc(C2CN3CCN=C3c3ccccc32)cc1 (single isomer, unassigned; (-)) [Example 3] : 8.1

* * *

- SYSTEM UNDER TEST: dopamine reuptake
- ASSAY NAME: dopamine (DUP) reuptake blockade
- Format: biochemical
- CONDITION SUMMARY: in vitro
REPORTED METRIC: DUP (pKi)
Hey, just send me the number, nothing else.

DUP (pKi) reported for this molecule Fc1ccc(C2CN3CCN=C3c3ccccc32)cc1 (racemic) [Example 2b] : 6.5

DUP (pKi) reported for this molecule Fc1ccc(C2CN3CCN=C3c3ccccc32)cc1 (single isomer, unassigned; (-)) [Example 6] : 6.6

DUP (pKi) reported for this molecule Cc1ccc(C2CN3CCN=C3c3ccccc32)cc1 (racemic) [Example 2c] : 7.05

DUP (pKi) reported for this molecule Fc1ccc(C2CN3CCN=C3c3ccccc32)cc1 (single isomer, unassigned; (+)) [Example 7] : 6.45

DUP (pKi) reported for this molecule Clc1ccc(C2CN3CCN=C3c3ccccc32)cc1 (single isomer, unassigned; (+)) [Example 4] : 7.2

DUP (pKi) reported for this molecule Cl.Clc1ccc(C2CN3CCN=C3c3ccccc32)cc1 (racemic) [Example 2a] : 7.15

DUP (pKi) reported for this molecule Clc1ccc(C2CN3CCN=C3c3ccccc32)cc1 (single isomer, unassigned; (-)) [Example 3] : 7.15
